- Tested on: MOLT-4
- test details: NCI tumour cell line growth inhibition, 48 h
Activity calls are given as the source filed them. Rule as the data show it: active = GI50 up to about 1.1 µM and inactive = higher.
Respond only with the outcome that fits, drawn from true for active, false for inactive

Record lookup: outcome of this test for `CC(C)=NN/C=N\C(C#N)=C(/N)C#N` ?
false

Record lookup: outcome of this test for `CC1(C)O[C@@H]2[C@@H](COC(C)(C)O[C@H]2C2SCCCS2)O1` ?
false

Record lookup: outcome of this test for `Cc1cc(NC(=O)C(=O)Cc2cnc3ccccc3n2)c(S(=O)(=O)O)cc1Cl` ?
false

Record lookup: outcome of this test for COC(=O)C(C(=O)OC)C1CCCC(=O)C1 (centres undefined) ?
false

Record lookup: outcome of this test for CC(C)(C)NC(=O)C12C3C4C1C1C2C3C41I (centres undefined) ?
false

Record lookup: outcome of this test for CC1=NN(c2ccccc2)C(=O)C1/N=N/c1ccc(Br)c(C)c1 (centres undefined) ?
false

Record lookup: outcome of this test for C=C1CC(Cn2cc(C)c(=O)[nH]c2=O)(c2ccc(Cl)cc2)OC1=O (centres undefined) ?
true

Record lookup: outcome of this test for `S=C(/C=C1\SC(=N\c2ccccc2)/C(=N/c2ccccc2)N1c1ccccc1)Nc1ccccc1` ?
false

Record lookup: outcome of this test for `CN(O)C(=O)c1ccccc1` ?
false

Record lookup: outcome of this test for `COc1cccc2c3cccc(OC)c3c3[nH]cnc3c12` ?
false

Record lookup: outcome of this test for `CC1(C)OC[C@@H]([C@@]2(COC(c3ccccc3)(c3ccccc3)c3ccccc3)CC=CC(=O)O2)O1` ?
false

Record lookup: outcome of this test for `COc1ccc(-c2onc(-c3ccc([N+](=O)[O-])cc3)c2C2=NCCCN2)cc1` ?
false

Record lookup: outcome of this test for `O=c1c(Br)cc2nc3ccccc3sc-2c1Br` ?
false

Record lookup: outcome of this test for Nc1ncnc2c1ncn2C1OC(CO)C(O)C1N (centres undefined) ?
false

Record lookup: outcome of this test for `CCOC(=O)c1sc(Nc2cc(Cl)ccc2Cl)nc1C` ?
false

Record lookup: outcome of this test for `CCC(=O)NC(Nc1ccccc1F)(C(F)(F)F)C(F)(F)F` ?
false

Record lookup: outcome of this test for CC1(C)CCN2C(=O)C34CCCC3CC21S4 (centres undefined) ?
false

Record lookup: outcome of this test for C=C(C=O)[C@@H]1C2OC(=O)C(=C)[C@@H]2CC(O)[C@@]1(C)CC (some centres undefined) ?
false

Record lookup: outcome of this test for `O=C(/C=C/c1cccc(Oc2ccccc2)c1)NCc1ccc(C(=O)NCCc2ccccc2)cc1` ?
false

Record lookup: outcome of this test for O=c1ccn([C@@H]2C[C@H](CO)C[S+]([O-])C2)c(=O)[nH]1 (some centres undefined) ?
false

Record lookup: outcome of this test for `c1ccc(/N=C2\c3ccsc3/C(=N/c3ccccc3)c3ccsc32)cc1` ?
false

Record lookup: outcome of this test for `Cc1ccc(/C=C/C(=O)CCN(C)C)cc1` ?
false

Record lookup: outcome of this test for `CSc1ccc(/C=C2\N=C(c3ccccc3)N(/N=C3\C(=O)Nc4ccccc43)C2=O)cc1` ?
false

Record lookup: outcome of this test for Cc1ccc(S(=O)(=O)NC(=O)NC(CC(=O)O)C(=O)O)cc1 (centres undefined) ?
false

Record lookup: outcome of this test for `CCOC(=O)/C(C(=O)c1ccc[nH]1)=C1/CCCN1C` ?
false

Record lookup: outcome of this test for `O=c1c2ccccc2nc2n1CCc1c-2[nH]c2ccccc12` ?
false

Record lookup: outcome of this test for Cc1ccc(S(=O)(=O)OC2CC(C(C)(C)C)CCC2c2ccccc2)cc1 (centres undefined) ?
false

Record lookup: outcome of this test for COc1ccc(-c2nc(SC)n(C3OC(COC(C)=O)C(OC(C)=O)C(OC(C)=O)C3OC(C)=O)c(=O)c2C#N)cc1 (centres undefined) ?
false

Record lookup: outcome of this test for `COc1ccc([C@@H]2C[C@@H]3C(=O)OC(=O)[C@@H]3c3c2c2ccccc2n3C)cc1` ?
false

Record lookup: outcome of this test for `CC(=O)c1cc([N+](=O)[O-])ccc1OCC(=O)O` ?
false

Record lookup: outcome of this test for C=C1C(=O)O[C@H]2C3C(=C(C)CC[C@@H]12)C(=O)[C@@H]1OC31C (some centres undefined) ?
false

Record lookup: outcome of this test for CCC(C#N)NC(=O)NC(C#N)CC (centres undefined) ?
false

Record lookup: outcome of this test for CC(=O)OC(CCC1(C)OC1COc1ccc(CCNC(=O)c2ccccc2)cc1)C(C)(C)OC(C)=O (centres undefined) ?
false

Record lookup: outcome of this test for `O=S1(=O)C(c2ccccc2)=C(O)c2ccccc21` ?
false

Record lookup: outcome of this test for `O=C(O)/C(Cl)=C(\Cl)C(=O)c1ccccc1` ?
false

Record lookup: outcome of this test for `C[C@H]1C(=O)C2=C[C@H]1CCC(=O)[C@]1(C)CCCC(C)(C)[C@H]1C[C@H]2O` ?
false

Record lookup: outcome of this test for `CCN(CC)C(=S)SC(=S)N(CC)CC` ?
false

Record lookup: outcome of this test for CC[C@@]1(O)C(=O)OCc2c1cc1n(c2=O)Cc2c-1nc1ccccc1c2/C=N\NC(=O)C(N)CO (some centres undefined) ?
true

Record lookup: outcome of this test for CCCCCCCCCCCCCCCCNc1ccn(C2CC(OP(=O)(O)OCC3OC(n4cc(CC)c(=O)[nH]c4=O)CC3O)C(CO)O2)c(=O)n1 (centres undefined) ?
false

* * *

Exercise: for every item that follows, state its recorded GI50.
- Test system: DMS-273
- test details: NCI tumour cell line growth inhibition, 48 h
The source made the active and inactive calls. Rule as the data show it: active = GI50 up to about 1.1 µM and inactive = higher.

Requested field: GI50. Item: `CC[N+](CC)(CC)Cc1cn(S(=O)(=O)c2ccccc2)c2ccccc12`
> 100 µM (inactive)

Requested field: GI50. Item: `Cc1cc(N(CCC#N)CCC#N)ccc1/C=C1/N=C(c2ccccc2)N(N)C1=O`
89.1 µM (inactive)

Requested field: GI50. Item: `Cc1cc(C)nc(NS(=O)(=O)c2ccc(NC(=O)c3cccc4c(=O)c5ccccc5[nH]c34)cc2)n1`
22.1 µM (inactive)

Requested field: GI50. Item: `O=C1CCCN(c2ccccc2)N1`
> 100 µM (inactive)

Requested field: GI50. Item: `O=C(O)/C(Cl)=C(\Cl)C(=O)c1ccccc1`
> 100 µM (inactive)

Requested field: GI50. Item: `CN(C)CCN1N=Nc2cccc3cccc1c23`
24.5 µM (inactive)

Requested field: GI50. Item: `COc1ccc([C@@H]2C[C@@H]3C(=O)OC(=O)[C@@H]3c3c2c2ccccc2n3C)cc1`
> 100 µM (inactive)

Requested field: GI50. Item: C=CC1(NS(=O)(=O)c2ccc(C)cc2)CCC(C(C)(C)C)CC1 (stereo not drawn)
43.5 µM (inactive)

* * *

- Test system: SN12C
- test details: NCI tumour cell line growth inhibition, 48 h
Calls of active or inactive are those of the source. No stated cut-off is given here; in the data, active = GI50 up to about 1.1 µM and inactive = higher.
Respond only with the outcome that fits, drawn from yes for active, no for inactive

Record lookup: outcome of this test for `CN(CCCCN)c1ccc2c(=O)[nH][nH]c(=O)c2c1` ?
no

Record lookup: outcome of this test for COc1cc2oc3cc(=O)cc4oc(-c5ccccc5)cc(c2c2c1CCC(c1ccccc1)O2)c43 (stereo not drawn) ?
no

Record lookup: outcome of this test for `Nc1nc(O)c(N)c(NCCOCP(=O)(O)O)n1` ?
no

Record lookup: outcome of this test for C=CC1(NS(=O)(=O)c2ccc(C)cc2)CCC(C(C)(C)C)CC1 (stereo not drawn) ?
no

Record lookup: outcome of this test for `c1ccc2c(c1)[C@@H]1O[C@@H]1[C@@]13O[C@@]21[C@H]1O[C@H]1c1ccccc13` ?
no

Record lookup: outcome of this test for `O=C1C(=O)N(c2ccc(Cl)cc2Cl)C(=O)C(=O)C1c1nc2ccccc2o1` ?
no

Record lookup: outcome of this test for N#CC(/N=N/c1ccc(Cl)cc1)c1nc2ccccc2o1 (stereo not drawn) ?
no

Record lookup: outcome of this test for C/C(=C\CCC1=CC(=O)OC1)CCC1C2C(=O)CC(C)[C@@]3(C)CC[C@]1(C)[C@@]23C (stereo partly drawn) ?
no

Record lookup: outcome of this test for NC1=NC2=C(CCCC2)C(c2cccs2)S1 (stereo not drawn) ?
no

Record lookup: outcome of this test for `CC1=C(c2cc(C(=O)Nc3ccc(Cl)cc3)nc(S)n2)Sc2ccccc2N1` ?
no

Record lookup: outcome of this test for `Cn1c(N)c(Cc2ccc(Cl)cc2)c(=O)[nH]c1=O` ?
no

Record lookup: outcome of this test for `CC1CCN(CC(=O)N2c3ccccc3Sc3cc4ccccc4cc32)CC1` ?
no

Record lookup: outcome of this test for `COc1cc2c[n+](C)c3c4cc(OC)c(OC)cc4c(OCCCCCCCCOc4cc5c6cc(OC)c(OC)cc6c[n+](C)c5c5cc(OC)c(OC)cc45)cc3c2cc1OC` ?
no

Record lookup: outcome of this test for `CC(=O)c1cc([N+](=O)[O-])ccc1OCC(=O)O` ?
no

Record lookup: outcome of this test for O=C1CCCCCCCCCCC1CN1CCOCC1 (stereo not drawn) ?
no

Record lookup: outcome of this test for `O=C1C=CC2(C=C1)O[C@H](Cc1ccccc1)[C@@H](Cc1ccccc1)O2` ?
yes

Record lookup: outcome of this test for COc1ccc(C2c3cc4c(cc3OC(N3CCOCC3)C2C)OCO4)cc1 (stereo not drawn) ?
no

Record lookup: outcome of this test for CC1=NN(C(=O)CC(=O)Nc2cccc(C)c2)C(=O)C1/N=N/c1ccc(C(=O)O)cc1 (stereo not drawn) ?
no

Record lookup: outcome of this test for `Cn1c2ccccc2c(=NNc2ccc(S(N)(=O)=O)cc2)c2ccccc21` ?
no

Record lookup: outcome of this test for CC(=O)c1ccc2c(c1)CC1(C2)Cc2cc3c(cc2C1)C(=O)CC3 (stereo not drawn) ?
no

Record lookup: outcome of this test for `COc1ccc(NC(=S)N/N=C2\C(=O)Nc3ccccc32)cc1` ?
no

Record lookup: outcome of this test for `N#CC(c1ccccc1)(c1ccccc1)[C@@H](c1ccccc1)[C@H](Cc1ccccc1)NS(=O)(=O)c1ccccc1` ?
no

Record lookup: outcome of this test for `CCOP(=O)(OCC)/C(C#N)=C/c1ccc(-c2cc(C(F)(F)F)cc(C(F)(F)F)c2)o1` ?
no

Record lookup: outcome of this test for `O=[N+]([O-])c1ccc2nc(=S)[nH]n2c1` ?
no

Record lookup: outcome of this test for `Nc1ccccc1C#CC(=O)c1cccc(C(F)(F)F)c1` ?
no

Record lookup: outcome of this test for `CN(C)CCCCN1c2ccccc2Sc2ccc(C(=O)c3ccccc3)cc21` ?
no

Record lookup: outcome of this test for C/C(=N/O)C1CC=C(S(=O)(=O)c2ccccc2)C1 (stereo not drawn) ?
no

Record lookup: outcome of this test for `CN(C)c1ccc(/C=N/N=C2\C(=O)Nc3c(Cl)cc(Cl)cc32)cc1` ?
no

Record lookup: outcome of this test for O=C1CSC2(CC(/C=C/c3cccs3)=NN2c2cccc(S(=O)(=O)O)c2)N1c1nc2ccccc2s1 (stereo not drawn) ?
no

Record lookup: outcome of this test for CC1=CCC2CC1NC(=O)CCOCCC(=O)NC2(C)C (stereo not drawn) ?
no

Record lookup: outcome of this test for `CCOC(=O)c1sc2ncnc(N)c2c1C` ?
no

Record lookup: outcome of this test for `Cc1cc2c(cc1O)CC[C@@H]1[C@@H]2CC[C@]2(C)[C@@H](O)CC[C@@H]12` ?
no

Record lookup: outcome of this test for `Nc1nc(Cl)c(/C=N\O)c(NCC2(CO)CCC2)n1` ?
no

Record lookup: outcome of this test for `Cc1ccc2c(ccc3[nH]cc(CNc4ccc(NS(C)(=O)=O)cc4)c32)n1` ?
no

Record lookup: outcome of this test for `COc1ccc(-c2cc(-c3ccc(O)cc3O)c(C#N)c(=O)[nH]2)cc1` ?
no

Record lookup: outcome of this test for N#CC1(C#N)NC(c2ccccc2)C(C#N)(C#N)NC1c1ccccc1 (stereo not drawn) ?
no

Record lookup: outcome of this test for Cc1cc(C)c2c(c1)C(=O)C1(C2)Cc2c(ccc(C)c2C)C1=O (stereo not drawn) ?
no

Record lookup: outcome of this test for `O=C(/C=C/c1cccc(Oc2ccccc2)c1)NCc1ccc(C(=O)NCCc2ccccc2)cc1` ?
no

Record lookup: outcome of this test for C=C1C2Oc3ccccc3C1N(c1ccccc1)O2 (stereo not drawn) ?
no

Record lookup: outcome of this test for `CCOC(=O)C1CSCCSC1` ?
no

Record lookup: outcome of this test for C=C1CC(Cn2cc(C)c(=O)[nH]c2=O)(c2ccc(Cl)cc2)OC1=O (stereo not drawn) ?
no

Record lookup: outcome of this test for `COc1ccc(/C(C)=N/NC(=S)N(C)C)c(O)c1` ?
no

Record lookup: outcome of this test for `Cc1ccsc1/C=N/Nc1cc(C)c2ccccc2n1` ?
no
